Collected set of Ki measured with Amine oxidase [flavin-containing] A (Homo sapiens) across studies.
Sequence (P21397 whole entry): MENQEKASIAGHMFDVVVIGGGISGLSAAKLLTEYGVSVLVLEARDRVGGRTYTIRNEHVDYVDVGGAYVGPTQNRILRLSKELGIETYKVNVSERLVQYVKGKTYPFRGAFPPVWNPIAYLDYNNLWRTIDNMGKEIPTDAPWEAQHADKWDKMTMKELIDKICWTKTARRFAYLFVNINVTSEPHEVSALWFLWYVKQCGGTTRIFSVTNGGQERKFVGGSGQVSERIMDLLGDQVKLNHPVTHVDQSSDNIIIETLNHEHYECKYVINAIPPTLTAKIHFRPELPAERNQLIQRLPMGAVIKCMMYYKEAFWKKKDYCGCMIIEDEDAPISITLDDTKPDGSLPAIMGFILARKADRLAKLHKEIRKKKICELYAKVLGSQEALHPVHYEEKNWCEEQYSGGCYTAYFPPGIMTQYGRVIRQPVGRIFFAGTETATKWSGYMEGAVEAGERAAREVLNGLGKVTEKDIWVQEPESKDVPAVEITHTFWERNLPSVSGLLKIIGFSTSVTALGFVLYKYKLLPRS
Give your result in µM as a bare value.

Reference set (6 entries):
Cn1cccc1C(=O)[C@@H](c1ccccc1)N1CCCC1: 0.0035
Cc1cc(-c2ccc(N3C[C@H](Cn4ccnn4)OC3=O)cc2F)on1: 2.9
C[n+]1ccc(Cc2cccc3ccccc23)cc1: 5.5
Cn1c(C(=O)NN=Cc2ccc(O)c(O)c2)cc(Br)c1Br: 20.4
COc1ccc(C=NNC(=O)c2cc(Br)c(Br)n2C)cc1: 13.8
O=C(NN=Cc1ccc(F)cc1)c1cc(Br)c(Br)[nH]1: 5.1

Test system Amine oxidase [flavin-containing] A (Homo sapiens); read-out Ki; what value for Cn1c(C(=O)NN=Cc2ccc(Cl)cc2Cl)cc(Br)c1Br ?
2.6

Test system Amine oxidase [flavin-containing] A (Homo sapiens); read-out Ki; what value for Cn1cccc1C(=O)[C@H](c1ccccc1)N1CCCC1 ?
0.00951

Test system Amine oxidase [flavin-containing] A (Homo sapiens); read-out Ki; what value for NCCCN(CCCC=Nc1cc(O)c2ccccc2c1O)Cc1ccccc1 ?
28

Test system Amine oxidase [flavin-containing] A (Homo sapiens); read-out Ki; what value for NNCCc1ccc(NC(=O)CCCc2ccccc2)cc1 ?
2.6

Test system Amine oxidase [flavin-containing] A (Homo sapiens); read-out Ki; what value for Cn1c(C(=O)NN=Cc2ccc(O)cc2)cc(Br)c1Br ?
7.1

Test system Amine oxidase [flavin-containing] A (Homo sapiens); read-out Ki; what value for CC(C)=CCc1c(N=CCCCN(CCCN)Cc2ccccc2)c(O)c2ccccc2c1O ?
22

Test system Amine oxidase [flavin-containing] A (Homo sapiens); read-out Ki; what value for Cn1c(C(=O)NN=Cc2ccc(Cl)cc2)cc(Br)c1Br ?
26.9
